Hello, the source for this data is paper PMC10786891, in case you need it.

- tested.system: T1, EsCas13d, nuclease-dead (Eubacterium siraeum, UniProt B0MS50, R295A;H300A;R849A;H854A)
- T1 sequence: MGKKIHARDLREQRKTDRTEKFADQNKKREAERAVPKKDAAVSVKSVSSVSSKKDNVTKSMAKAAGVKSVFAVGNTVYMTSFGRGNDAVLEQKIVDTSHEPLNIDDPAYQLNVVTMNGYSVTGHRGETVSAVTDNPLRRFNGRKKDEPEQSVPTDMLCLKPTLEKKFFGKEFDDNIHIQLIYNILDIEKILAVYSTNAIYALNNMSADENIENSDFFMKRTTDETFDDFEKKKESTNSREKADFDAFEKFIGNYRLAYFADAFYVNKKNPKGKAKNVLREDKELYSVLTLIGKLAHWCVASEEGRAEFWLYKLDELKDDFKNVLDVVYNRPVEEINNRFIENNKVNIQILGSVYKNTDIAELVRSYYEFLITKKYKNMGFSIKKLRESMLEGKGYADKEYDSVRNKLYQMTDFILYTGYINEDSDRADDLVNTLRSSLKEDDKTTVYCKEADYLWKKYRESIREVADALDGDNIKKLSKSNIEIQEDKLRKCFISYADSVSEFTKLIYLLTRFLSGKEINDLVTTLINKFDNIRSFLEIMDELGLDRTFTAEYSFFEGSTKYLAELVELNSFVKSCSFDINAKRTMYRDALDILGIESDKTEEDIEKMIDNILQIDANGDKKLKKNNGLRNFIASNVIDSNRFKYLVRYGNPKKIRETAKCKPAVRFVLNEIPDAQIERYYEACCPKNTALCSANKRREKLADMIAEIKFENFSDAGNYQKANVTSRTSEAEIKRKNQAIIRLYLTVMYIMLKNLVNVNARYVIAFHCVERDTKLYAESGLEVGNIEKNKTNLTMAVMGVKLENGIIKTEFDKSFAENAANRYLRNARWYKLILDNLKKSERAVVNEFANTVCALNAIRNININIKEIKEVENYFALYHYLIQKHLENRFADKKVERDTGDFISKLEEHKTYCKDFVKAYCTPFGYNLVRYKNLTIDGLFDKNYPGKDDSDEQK
- test.details: crRNA (strand 1, pre-loaded); Mg2+; 40 mM Tris-HCl pH 7.5, 150 mM NaCl, 6 mM MgCl2, 1 mM DTT, 0.1% Tween-20, 0.2 mg/ml BSA; 25 C; 10 min per concentration, then washed
- experimental.context: tags: His6-TwinStrep-SUMO cleaved; N-terminal SNAP kept (SNAP-Surface 488); label: 3' end held by stalled T7 RNA polymerase

# binder, Kd / nM
data = [
    ("target 1 MT 5'PFS GUU 3'PFS AGC (mixed) RNA 1: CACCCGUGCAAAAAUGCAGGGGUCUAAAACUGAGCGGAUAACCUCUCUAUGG RNA 2: GGGAAUGGAUCCACAUCUACGAAUUCGUUCCAUAGAGAGGUUAUCCGCUCAAGCAGAUCGGAAGAGCACACGU", 15.6),
    ("target 2 MT 5'PFS UAA 3'PFS AUA (mixed) RNA 1: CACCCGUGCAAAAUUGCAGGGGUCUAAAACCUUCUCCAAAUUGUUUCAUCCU RNA 2: GGGAAUGGAUCCACAUCUACGAAUUCUAAAGGAUGAAACAAUUUGGAGAAGAUAAGAUCGGAAGAGCACACGU", 4.3),
    ("target 1 G13A (mixed) RNA 1: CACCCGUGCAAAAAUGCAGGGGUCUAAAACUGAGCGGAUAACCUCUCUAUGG RNA 2: GGGAAUGGAUCCACAUCUACGAAUUCGUACCAUAGAGAAGUUAUCCGCUCACCGAGAUCGGAAGAGCACACGU", 4.9),
    ("target 3 insA 3' of 22,insG 3' of 6 (mixed) RNA 1: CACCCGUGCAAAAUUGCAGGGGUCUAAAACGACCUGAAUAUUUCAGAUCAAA RNA 2: GGGAAUGGAUCCACAUCUACGAAUUCGUUUAUUGAUCUGAAAUAUUCGAGGUCUGCAGAUCGGAAGAGCACACGU", 12.2),
]
